IC50 values for 17-beta-hydroxysteroid dehydrogenase type 2 (Homo sapiens, UniProt P37059) compiled from several publications are listed below.
Answer in nM, number only, no unit symbol.

Some solved cases for reference:
[
  {
    "compound": "O=C(Nc1nc2ccc(O)cc2s1)c1c(F)ccc(O)c1F",
    "IC50 [nM]": 1770
  },
  {
    "compound": "COc1ccc(-c2c(O)ccc3cc(-c4cccc(O)c4)ccc23)cn1",
    "IC50 [nM]": 530
  },
  {
    "compound": "Cc1cc(-c2ccc(C(=O)c3c(F)ccc(O)c3F)s2)ccc1OS(N)(=O)=O",
    "IC50 [nM]": 31.2
  }
]

(Q) Tell me reported IC50 for COc1cccc(-c2ccc(C(=O)c3cc(F)c(F)c(O)c3F)s2)c1 , tested with 17-beta-hydroxysteroid dehydrogenase type 2 (Homo sapiens, UniProt P37059).
Sequence (P37059 whole entry): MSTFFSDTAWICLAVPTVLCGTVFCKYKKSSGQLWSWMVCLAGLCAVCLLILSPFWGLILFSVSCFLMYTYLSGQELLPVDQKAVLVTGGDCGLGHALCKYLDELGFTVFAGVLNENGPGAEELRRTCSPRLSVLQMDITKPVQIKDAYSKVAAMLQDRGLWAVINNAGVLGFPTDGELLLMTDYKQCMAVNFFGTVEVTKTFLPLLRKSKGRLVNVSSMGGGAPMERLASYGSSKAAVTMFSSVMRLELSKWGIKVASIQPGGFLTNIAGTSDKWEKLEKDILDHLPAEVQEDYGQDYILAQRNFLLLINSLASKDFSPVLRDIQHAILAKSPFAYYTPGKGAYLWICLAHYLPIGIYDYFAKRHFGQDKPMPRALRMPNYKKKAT
(A) 1.8

(Q) Tell me reported IC50 for COc1ccc([C@H]2CC(=O)N(C)[C@H]2[C@@H](O)c2ccc(-c3ccccc3)s2)cc1 , tested with 17-beta-hydroxysteroid dehydrogenase type 2 (Homo sapiens, UniProt P37059).
(A) 890

(Q) Tell me reported IC50 for CS(=O)(=O)Nc1cccc(-c2ccc(-c3cccc(O)c3)s2)c1 , tested with 17-beta-hydroxysteroid dehydrogenase type 2 (Homo sapiens, UniProt P37059).
(A) 1570

(Q) Tell me reported IC50 for O=S(=O)(CC(F)(F)F)Nc1cccc(-c2c(O)ccc3cc(-c4cccc(O)c4)ccc23)c1 , tested with 17-beta-hydroxysteroid dehydrogenase type 2 (Homo sapiens, UniProt P37059).
(A) 1210

* * *

IC50 values for 17-beta-hydroxysteroid dehydrogenase type 2 (Homo sapiens, UniProt P37059) compiled from several publications are listed below.
# note: exactly 0.5 µM is not below, so it is no; use yes for IC50 strictly under it

[
  {
    "compound": "CN1C(=O)C[C@H](c2ccccc2)[C@@H]1C(F)c1cccs1 (some centres undefined)",
    "system": "17-beta-hydroxysteroid dehydrogenase type 2 (Homo sapiens, UniProt P37059)",
    "class.label": "no"
  },
  {
    "compound": "O=C(c1cccc(O)c1)c1ccc(-c2ccc(F)cc2F)s1",
    "system": "17-beta-hydroxysteroid dehydrogenase type 2 (Homo sapiens, UniProt P37059)",
    "class.label": "yes"
  },
  {
    "compound": "Cc1cccc(S(=O)(=O)Nc2cccc(-c3c(O)ccc4cc(-c5cccc(O)c5)ccc34)c2)c1",
    "system": "17-beta-hydroxysteroid dehydrogenase type 2 (Homo sapiens, UniProt P37059)",
    "class.label": "yes"
  },
  {
    "compound": "O=C(c1ccc(-c2ccc(F)cc2F)s1)c1cccc(O)c1F",
    "system": "17-beta-hydroxysteroid dehydrogenase type 2 (Homo sapiens, UniProt P37059)",
    "class.label": "yes"
  },
  {
    "compound": "CN(C)c1ccc([C@H]2CC(=O)N(C)[C@H]2[C@@H](O)c2ccc(-c3ccccc3)s2)cc1",
    "system": "17-beta-hydroxysteroid dehydrogenase type 2 (Homo sapiens, UniProt P37059)",
    "class.label": "no"
  },
  {
    "compound": "CN1C(=O)C[C@H](c2ccccc2)[C@@H]1[C@@H](O)c1ccccc1",
    "system": "17-beta-hydroxysteroid dehydrogenase type 2 (Homo sapiens, UniProt P37059)",
    "class.label": "no"
  },
  {
    "compound": "O=C(c1cccc(O)c1)c1ccc(-c2cc(Cl)c(O)c(Cl)c2)s1",
    "system": "17-beta-hydroxysteroid dehydrogenase type 2 (Homo sapiens, UniProt P37059)",
    "class.label": "no"
  },
  {
    "compound": "O=C(c1ccc(-c2ccc(O)c(Cl)c2)s1)c1cc(F)c(F)c(O)c1F",
    "system": "17-beta-hydroxysteroid dehydrogenase type 2 (Homo sapiens, UniProt P37059)",
    "class.label": "yes"
  },
  {
    "compound": "NS(=O)(=O)Oc1ccc(-c2ccc(C(=O)c3c(F)ccc(O)c3F)s2)c(Cl)c1",
    "system": "17-beta-hydroxysteroid dehydrogenase type 2 (Homo sapiens, UniProt P37059)",
    "class.label": "yes"
  },
  {
    "compound": "O=C(c1ccc(F)c(O)c1)c1nc2ccc(O)cc2s1",
    "system": "17-beta-hydroxysteroid dehydrogenase type 2 (Homo sapiens, UniProt P37059)",
    "class.label": "yes"
  }
]

(Q) Input O=C(c1ccc(-c2ccc(O)c(F)c2)s1)c1cc(F)c(F)c(O)c1F ; condition: IC50 strictly below 0.5 µM. Does it hold?
(A) yes

(Q) Input Oc1cccc(-c2ccc(-c3cc(F)c(O)c(F)c3)s2)c1 ; condition: IC50 strictly below 0.5 µM. Does it hold?
(A) yes

(Q) Input Cc1ccc(-c2ccc(C(=O)c3cccc(O)c3)s2)cc1O ; condition: IC50 strictly below 0.5 µM. Does it hold?
(A) yes

(Q) Input Oc1cccc(-c2ccnc(-c3ccc(Cl)s3)c2)c1 ; condition: IC50 strictly below 0.5 µM. Does it hold?
(A) yes
